biological target: Estrogen receptor (Homo sapiens); test: biochemical; note: in other assays of this panel Not Active means under 50% inhibition at 10 µM
Sequence (P03372 whole entry): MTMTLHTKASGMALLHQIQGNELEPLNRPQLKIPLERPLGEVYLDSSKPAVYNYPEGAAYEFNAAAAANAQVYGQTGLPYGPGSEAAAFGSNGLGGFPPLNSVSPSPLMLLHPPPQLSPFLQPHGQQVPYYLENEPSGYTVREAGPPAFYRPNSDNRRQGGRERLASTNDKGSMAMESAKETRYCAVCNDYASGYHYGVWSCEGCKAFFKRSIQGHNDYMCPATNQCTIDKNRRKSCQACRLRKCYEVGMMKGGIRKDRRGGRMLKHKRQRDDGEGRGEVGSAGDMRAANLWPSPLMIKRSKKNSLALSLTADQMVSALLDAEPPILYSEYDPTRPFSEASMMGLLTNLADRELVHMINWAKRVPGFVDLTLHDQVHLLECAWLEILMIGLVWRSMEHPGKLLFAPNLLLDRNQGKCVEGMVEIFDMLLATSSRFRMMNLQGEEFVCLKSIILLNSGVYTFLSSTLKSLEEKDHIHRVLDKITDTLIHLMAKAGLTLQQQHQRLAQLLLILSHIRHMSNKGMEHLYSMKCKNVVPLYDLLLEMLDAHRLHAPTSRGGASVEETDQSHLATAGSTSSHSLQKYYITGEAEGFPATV
measured-attribute: Ki (nM)

compound="C#C[C@]1(O)CC[C@H]2[C@@H]3CCC4=Cc5oncc5C[C@]4(C)[C@H]3CC[C@@]21C [DANAZOL]" measured_attribute=Ki unit_name=nM numeric_value=5080
compound=CC[C@]1(O)CC[C@H]2[C@@H]3CCC4=CCCC[C@@H]4[C@H]3CC[C@@]21C measured_attribute=Ki unit_name=nM numeric_value=320
compound="O=C(/C=C/c1ccc(O)c(O)c1)OCCc1ccccc1 [CAFFEIC ACID PHENETHYL ESTER]" measured_attribute=Ki unit_name=nM numeric_value=2260

----------
experiment: DRUGMATRIX: Serotonin (5-Hydroxytryptamine) 5-HT3 radioligand binding (ligand: [3H] GR-65630); assay type: cell membranes, Membrane; settings: hek293; Not Active = under 50% inhibition at 10 µM
measured-attribute: Ki

substance="POLYVINYL ALCOHOL" result="Not Active"
substance=THIMEROSAL result="Not Active"
substance="COBALT(II) ACETYLACETONATE" result="Not Active"
substance="STANNOUS FLUORIDE" result="Not Active"
substance="INSULIN HUMAN" result="Not Active"

----------
target: Delta-type opioid receptor (Homo sapiens); format: cell membranes, HEK293, Membrane; conditions: read-out: IC50; note: in other assays of this panel Not Active means under 50% inhibition at 10 µM
Sequence (P41143 whole entry): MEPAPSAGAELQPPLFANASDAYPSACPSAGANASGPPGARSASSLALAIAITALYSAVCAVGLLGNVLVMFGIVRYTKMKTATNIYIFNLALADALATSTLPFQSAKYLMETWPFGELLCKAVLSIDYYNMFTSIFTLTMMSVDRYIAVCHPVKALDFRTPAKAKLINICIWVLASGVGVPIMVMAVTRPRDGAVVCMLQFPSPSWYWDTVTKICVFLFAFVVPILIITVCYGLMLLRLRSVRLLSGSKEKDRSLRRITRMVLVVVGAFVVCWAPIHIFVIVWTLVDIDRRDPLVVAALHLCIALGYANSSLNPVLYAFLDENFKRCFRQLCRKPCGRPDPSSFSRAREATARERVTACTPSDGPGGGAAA
pIC50: −log10 of the molar value.
measured-attribute: pIC50

structure_notation=OCCN1CCN(CCCN2c3ccccc3Sc3ccc(C(F)(F)F)cc32)CC1 target_of_assay="Delta-type opioid receptor (Homo sapiens)" measured_attribute=pIC50 numeric_value=4.62

----------
test: DRUGMATRIX: Tumor Necrosis Factor (TNF), Non-Selective radioligand binding (ligand: [125I] TNF-alpha); assay type: cell membranes, Membrane; conditions: u-937; Not Active = under 50% inhibition at 10 µM
measured-attribute: IC50

compound=CCOC(=O)[C@H](CCc1ccccc1)N[C@@H](C)C(=O)N1Cc2ccccc2C[C@H]1C(=O)O result="Not Active"
compound=O=C(c1ccccc1Cl)N1CCC(Cc2ccccc2)CC1 result="Not Active"
compound="CC(=O)O[C@]1(C(C)=O)CC[C@H]2[C@@H]3C=C(C)C4=CC(=O)CC[C@]4(C)[C@H]3CC[C@@]21C [MEGESTROL ACETATE]" result="Not Active"
compound=CCOC(N)=O result="Not Active"
compound="CN(C(=O)CCCOc1ccc2[nH]c(=O)ccc2c1)C1CCCCC1 [CILOSTAMIDE]" result="Not Active"
compound=C[C@@H]1C[C@H]2[C@@H]3CCC4=CC(=O)C=C[C@]4(C)C3=CC[C@]2(C)[C@H]1C(=O)CN1CCN(c2cc(N3CCCC3)nc(N3CCCC3)n2)CC1 result="Not Active"
compound=C=C(C)[C@H]1Cc2c(ccc3c2O[C@@H]2COc4cc(OC)c(OC)cc4[C@@H]2C3=O)O1 result="Not Active"
compound="CN1C[C@H](C(=O)N[C@]2(C)O[C@@]3(O)[C@@H]4CCCN4C(=O)[C@H](Cc4ccccc4)N3C2=O)C[C@@H]2c3cccc4[nH]cc(c34)C[C@H]21 [DIHYDROERGOTAMINE]" result="Not Active"
compound=CCn1cc(C(=O)O)c(=O)c2cc(F)c(N3CCNCC3)nc21 result="Not Active"
compound=COc1ccc(Cc2nccc3cc(OC)c(OC)cc23)cc1OC result="Not Active"
compound=CCS(=O)(=O)CCn1c([N+](=O)[O-])cnc1C result="Not Active"
compound=Nc1ccc(S(=O)(=O)Nc2nccs2)cc1 result="Not Active"
compound=CCCCC1C(=O)N(c2ccccc2)N(c2ccccc2)C1=O result="Not Active"
compound=COc1ccc(CN2CCNCC2)c(OC)c1OC result="Not Active"
compound="Cc1cnc(C(=O)NCCc2ccc(S(=O)(=O)NC(=O)NC3CCCCC3)cc2)cn1 [GLIPIZIDE]" result="Not Active"
compound="CC(=O)O[C@]1(C(C)=O)CC[C@H]2[C@@H]3C=C(Cl)C4=CC(=O)[C@@H]5C[C@@H]5[C@]4(C)[C@H]3CC[C@@]21C [CYPROTERONE ACETATE]" result="Not Active"

Value source: ChEMBL document CHEMBL1909046
